SUBJECT OF TEST: Microtubule-associated protein tau (Homo sapiens) (UniProt P10636)
Sequence (P10636 whole entry, looked up): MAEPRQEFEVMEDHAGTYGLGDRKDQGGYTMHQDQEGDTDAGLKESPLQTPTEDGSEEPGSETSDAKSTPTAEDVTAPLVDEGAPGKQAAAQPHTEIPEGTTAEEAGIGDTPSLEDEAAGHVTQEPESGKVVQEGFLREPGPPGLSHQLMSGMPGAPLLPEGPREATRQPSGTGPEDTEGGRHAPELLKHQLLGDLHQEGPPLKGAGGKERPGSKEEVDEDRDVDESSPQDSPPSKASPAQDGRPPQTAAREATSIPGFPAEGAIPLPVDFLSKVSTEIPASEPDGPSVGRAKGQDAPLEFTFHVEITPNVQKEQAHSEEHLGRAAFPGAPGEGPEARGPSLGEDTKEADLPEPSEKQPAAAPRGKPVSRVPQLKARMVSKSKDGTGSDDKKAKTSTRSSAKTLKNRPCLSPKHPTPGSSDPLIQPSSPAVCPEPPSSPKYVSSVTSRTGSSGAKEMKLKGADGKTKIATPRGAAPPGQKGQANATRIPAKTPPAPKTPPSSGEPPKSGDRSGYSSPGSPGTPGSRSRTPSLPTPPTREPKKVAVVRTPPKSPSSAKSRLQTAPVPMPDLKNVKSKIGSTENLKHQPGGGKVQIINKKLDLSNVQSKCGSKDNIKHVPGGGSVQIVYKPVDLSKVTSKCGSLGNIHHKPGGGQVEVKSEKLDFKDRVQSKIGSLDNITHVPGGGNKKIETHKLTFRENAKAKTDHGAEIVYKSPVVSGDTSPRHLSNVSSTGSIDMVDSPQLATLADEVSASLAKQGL
TEST METHOD NOTES: qHTS Assay for Tau Filament Binding;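 note: actives lower thioflavin S fluorescence by blocking filaments or displacing dye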
STATED CONDITIONS: recombinant tau filaments, thioflavin S fluorescence, 15 h, filaments grown with octadecylsulfate alongside compound; series mostly up to 57.1 µM
About 1,400 (2%) of roughly 71,000 compounds were called active. Another 3% or so got no clear call; they are omitted. Calls come from the whole dose curve; as a rule, active = well fitted curve in the direction sought with a large enough effect; inconclusive = small, poorly fitted or top-dose-only effect; inactive = no such curve, though single readings can be large or run the other way. The list comes from a sample in which actives are over-represented; it also holds close analogues and randomly drawn compounds.
Entry note: the call must match one of active, inactive

Would you please look over these solved cases?
{"columns": ["COMPOUND", "LABEL CLASS"],
 "data": [
  ["COC(=O)c1cnn2c(C(F)(F)F)cc(-c3ccco3)nc12", "active"],
  ["COc1ccccc1-c1nc(N2CCN(C)CC2)c2ccccc2n1", "inactive"],
  ["CNc1nc(-c2ccccc2OC)nc2ccccc12", "active"],
  ["CN1CCN(c2ncc3nc(-c4ccc(Cl)cc4)c(=O)n(-c4ccccc4)c3n2)CC1", "inactive"],
  ["CCOC(=O)c1ccn(-c2nc(-c3ccco3)cc(C(F)(F)F)n2)n1", "inactive"],
  ["O=C(OCC(COC(=O)c1ccccc1)(COC(=O)c1ccccc1)COC(=O)c1ccccc1)c1ccccc1", "inactive"],
  ["CC1CCCC(NC(=O)CSc2nccn2C)C1C (stereo not given)", "inactive"],
  ["CCC[C@@H]1C[C@@]1(CCC)C(NS(=O)(=O)c1cccc2cccnc12)c1ccc(Cl)cc1 (stereo not given in full)", "inactive"],
  ["CCOC(=O)CSc1nnc(NC(=O)c2cccc(S(=O)(=O)N3CCCCC3)c2)s1", "inactive"]
]}

Read the next record carefully.
So what was the verdict on CCC[C@@H]1C[C@@]1(CCC)[C@@H](NC(=O)c1ccccc1)c1ccc(C(=O)OC)cc1 in this test?
inactive

----------
SUBJECT OF TEST: Microtubule-associated protein tau (Homo sapiens) (UniProt P10636)
TEST METHOD NOTES: qHTS Assay for Tau Filament Binding;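 note: actives lower thioflavin S fluorescence by blocking filaments or displacing dye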
STATED CONDITIONS: recombinant tau filaments, thioflavin S fluorescence, 15 h, filaments grown with octadecylsulfate alongside compound; series mostly up to 57.1 µM
Hit rate of the full screen: of about 71,000 compounds, about 1,400 (2%) were called active. Not shown: some 3% with an inconclusive outcome. The call rests on the fitted dose curve; in most records, active means well fitted curve in the direction sought with a large enough effect; inconclusive means small, poorly fitted or top-dose-only effect; inactive means no such curve, though single readings can be large or run the other way. Shown is part of a subset that was picked to be rich in actives.
Mark one answer only. Choices: 1 for active, -1 for inactive

As a guide, the following entries are already answered.
{"columns": ["COMPOUND", "LABEL CLASS"],
 "data": [
  ["CC(=O)N1CCC(C(=O)Nc2nc(-c3ccccc3)ns2)CC1", 1],
  ["CCN(CC)S(=O)(=O)N1CCC(C(=O)NC(C)CCc2ccccc2)CC1 (configuration not stated)", -1],
  ["CCCCN(CC)C(=O)CN(C)S(=O)(=O)c1cccc2nsnc12", -1]
]}

Which outcome was assigned to O=C1C(c2[nH]c3ccccc3c2O)=Nc2ccccc21 in this test?
-1

Moving on to the next compound: CC(=O)OCC(COC(C)=O)OC(C)=O
-1

Also CCCCCC(=O)Nc1ccc2oc(-c3ccncc3)nc2c1 , if possible.
-1

Quick one: COc1cccc(Cn2c(=O)c(C)nc3cnc(Oc4ccccc4)nc32)c1
-1
